method_description: NCI Yeast Anticancer Drug Screen. Data for the bub3 strain (AID 167)
cond: S. cerevisiae bub3 mutant strain, at 50.0 µM, stronger effect = higher value
Compounds without any hit were thinned out: in the full panel of roughly 79,000, 15% have a hit.
Kindly supply the reported growth inhibition values for the records listed here.
Numbers only, in %.

>>> measured("C=C1CN2CCc3c([nH]c4ccccc34)C2CC1CC(=O)N(C)C (stereo not drawn)")
-32

Your task in this section: give growth inhibition for each listed record.
1. Cc1ccc(C2=CSc3ccccc3N2)cc1
2. c1ccc2c(c1)Oc1ccccc1S2
3. COc1ccc2nc(C(C)(O)c3ccccc3)ccc2c1 (stereo not drawn)
4. O=c1c2cc(Br)ccc2n(C2OC(CO)C(O)C(O)C2O)c(=S)n1-c1ccccc1 (stereo not drawn)
5. COC1(OC)CC(CCl)OC1(OC)OC (stereo not drawn)
6. COc1ccc2c(c1)C1Oc3ccccc3CC1(O)CO2 (stereo not drawn)
7. O=C1C(c2ccccc2Cl)[C@H]2CC=C[C@H]2N1O (stereo partly drawn)

Response:
[62.5, 7.35, 2.65, 50.5, 3.15, -6.3, -21.6]

Your task in this section: give growth inhibition for each listed record.
1. CCC(CC(N)=O)C(C#N)(C#N)C(N)=O (stereo not drawn)
2. COc1c2c(cc3c(CCc4ccccc4)cc(=O)oc13)CCC(C)(C)O2
3. CCOC(=O)CSc1nc(N)c2c(-c3ccccc3)c3c(nc2n1)CCCC3
4. CCOC(=O)N1CCCCC1
5. Cc1nc2c(N3CCOCC3)ncnc2o1

Response:
1. 7.1
2. -5.75
3. 21.7
4. -3.3
5. -15.3

Where do these numbers come from? They come from PubChem BioAssay (NCI).
